target: Dimer of Gag-Pol polyprotein [489-587] (Human immunodeficiency virus 1, UniProt P12497); construct: 489-587; experiment: Protease Inhibition Assay; settings: pH 5.5; 30 °C
pIC50: −log10 of the molar value.
value.type: pIC50

INSERT INTO measurements (smiles_record, measured_on, val) VALUES
  ('CC(C)(C)NC(=O)[C@@H]1C[C@@H]2CCCC[C@@H]2CN1C[C@@H](O)[C@H](Cc1ccccc1)NC(=O)[C@@H](NC(=O)c1ccc2ccccc2n1)[C@H]1CCOC1', 'Dimer of Gag-Pol polyprotein [489-587] (Human immunodeficiency virus 1, UniProt P12497)', 10.27);
